- target: Metabotropic glutamate receptor 8 (Rattus norvegicus)
- experimental-details: mGluR8 Gi/Go-coupled signaling modulation – cell-based, rat, thallium flux, HTS, primary screen (AID 488969)
- assay-context: HEK293 rat mGluR8, GIRK thallium flux, FluoZin2; at 10 µM; stronger effect = higher value; submaximal glutamate (EC20) added with thallium
The full ranking holds about 110,000 compounds; the median of “z-score” is about -0.1, and the highest 2% start at about 2. The list comes from a sample in which the highest values are over-represented; it also holds close analogues and randomly drawn compounds.
The following ranges of z-score define the classes used here: band 1 = under -0.07, band 2 = from -0.07 up to 2, band 3 = 2 and over

Below are worked cases with known answers.
CC(=C/c1ccccc1)/C=N/n1c(-c2ccco2)n[nH]c1=S
band 3
CC(/C=N/n1c(COc2ccccc2)n[nH]c1=S)=C\c1ccccc1
band 2
Cc1ccc(N(CC(=O)NCc2cccnc2)S(C)(=O)=O)cc1C
band 2
S=c1[nH]nc(C2CCCCC2)n1/N=C/C(Cl)=C\c1ccccc1
band 1

Exam item: Which of the defined bands does the recorded z-score of CCOC(=O)c1cc(NC(=O)N(C(C)C)C(C)C)c(C)nc1C sit within?
Marked response: band 2

Exam item: # bin label for CC(=O)c1cccc(N(CC(=O)Nc2ccc(F)cc2)S(C)(=O)=O)c1
Marked response: band 3

Exam item: Into which bin does this compound go? COc1ccc(N(CC(=O)NCc2cccc(OC)c2)S(=O)(=O)c2c(C)noc2C)cc1
Marked response: band 1

Exam item: Category of CCn1c(C(=O)N2CCC(C(=O)N3CCN(c4ccccn4)CC3)CC2)cc2sccc21 :
Marked response: band 2

Exam item: Given CCC(C)(C)n1nnnc1C(C(C)C)N1CCSCC1 (stereo not drawn) , name the class its z-score places it in.
Marked response: band 2

Exam item: Which band does Nc1sccc1C(=O)c1ccccc1 fall in?
Marked response: band 3

Exam item: Lab note: which band did CC(/C=N/n1c(-c2ccco2)n[nH]c1=S)=C\c1ccccc1 land in?
Marked response: band 3

====

- target: Metabotropic glutamate receptor 8 (Rattus norvegicus) (UniProt P70579)
- Sequence (P70579 whole entry, looked up): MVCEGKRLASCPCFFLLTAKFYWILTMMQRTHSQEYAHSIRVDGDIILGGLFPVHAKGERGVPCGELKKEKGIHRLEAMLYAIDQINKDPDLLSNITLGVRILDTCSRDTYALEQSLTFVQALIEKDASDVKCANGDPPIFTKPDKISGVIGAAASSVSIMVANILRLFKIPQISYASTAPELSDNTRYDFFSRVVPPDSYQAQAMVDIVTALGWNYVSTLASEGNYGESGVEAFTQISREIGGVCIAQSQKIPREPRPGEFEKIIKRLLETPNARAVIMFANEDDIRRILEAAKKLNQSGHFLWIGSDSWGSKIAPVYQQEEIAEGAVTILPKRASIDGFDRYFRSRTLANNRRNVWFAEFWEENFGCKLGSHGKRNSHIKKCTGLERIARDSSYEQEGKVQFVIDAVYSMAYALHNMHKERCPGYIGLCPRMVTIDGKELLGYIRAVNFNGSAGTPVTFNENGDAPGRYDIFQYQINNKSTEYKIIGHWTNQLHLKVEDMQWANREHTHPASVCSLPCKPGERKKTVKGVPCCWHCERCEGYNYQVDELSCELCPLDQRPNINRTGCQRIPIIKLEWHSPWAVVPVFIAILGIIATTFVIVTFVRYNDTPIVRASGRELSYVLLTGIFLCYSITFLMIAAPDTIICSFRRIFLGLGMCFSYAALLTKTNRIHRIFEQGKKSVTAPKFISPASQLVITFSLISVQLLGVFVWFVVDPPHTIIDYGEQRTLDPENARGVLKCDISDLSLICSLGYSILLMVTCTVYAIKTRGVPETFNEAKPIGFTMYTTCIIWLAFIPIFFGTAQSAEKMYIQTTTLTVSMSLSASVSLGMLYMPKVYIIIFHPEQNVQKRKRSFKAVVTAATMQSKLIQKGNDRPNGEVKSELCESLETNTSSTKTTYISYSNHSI
- experimental-details: mGluR8 Gi/Go-coupled signaling modulation – cell-based, rat, thallium flux, HTS, primary screen (AID 488969)
- assay-context: HEK293 rat mGluR8, GIRK thallium flux, FluoZin2; at 10 µM; stronger effect = higher value; submaximal glutamate (EC20) added with thallium
Whole data set: some 110,000 compounds, median “z-score” near -0.1, cut for the highest 2% near 2. The sample holds the highest values, similar compounds and a random draw of the others, so the mix is not that of the screen.
assay-endpoint: z-score

CC(C)C(=O)NC(Nc1ccccc1F)C(Cl)(Cl)Cl (stereo not drawn)
-0.185
CC(=O)c1c(N)[nH]c(-c2ccccc2)nc1=S
1.28
Cn1c(=O)c2c(ncn2CC(=O)N/N=C/C(Br)=C/c2ccccc2)n(C)c1=O
0.116

Exam item: Identify measured z-score corresponding to Cn1c(=O)c2c(ncn2CC(=O)N/N=C/c2ccco2)n(C)c1=O
Marked response: 1.59

Exam item: Identify measured z-score corresponding to CC(C)(CO)Nc1nc(N2CCCC2)nc(N2CCCC2)n1
Marked response: 2.09

Exam item: Supply z-score value. Item: O=C(NCCCN1CCOCC1)c1ccc2c(=O)n(CCc3ccccc3)c(=O)[nH]c2c1
Marked response: 1.15

====

- target: Metabotropic glutamate receptor 8 (Rattus norvegicus) (UniProt P70579)
- experimental-details: mGluR8 Gi/Go-coupled signaling modulation – cell-based, rat, thallium flux, HTS, primary screen (AID 488969)
- assay-context: HEK293 rat mGluR8, GIRK thallium flux, FluoZin2; at 10 µM; stronger effect = higher value; submaximal glutamate (EC20) added with thallium
Whole data set: some 110,000 compounds, median “z-score” near -0.1, cut for the highest 2% near 2. The full list was thinned out, with the highest values kept by preference.
Below, each entry is listed with its recorded z-score.
Response field accepts a number only; no unit should be typed.

Some solved cases for reference:
COc1ccc(/C=N/NC(=O)CSc2nnc(CCCc3ccc(OC)c(C)c3)o2)cc1
-0.18
Fc1ccc(CN2C3=NCCCN3c3ccccc32)cc1
-0.37
N#Cc1c(NC(=O)CSc2nc(-c3ccccc3)cc(C(F)(F)F)n2)sc2c1CCC2
0.0217
O=C(NN1c2ccccc2CCc2ccccc21)c1ccccc1Br
-0.0618

Exam item: // fetch z-score; item: CCN(/N=C/c1cccs1)c1cc(=O)n(C)c(=O)[nH]1 ; system: Metabotropic glutamate receptor 8 (Rattus norvegicus) (UniProt P70579)
Marked response: -0.0804

Exam item: Provide z-score, recorded with Metabotropic glutamate receptor 8 (Rattus norvegicus) (UniProt P70579), of O=C(CSc1ncn[nH]1)Nc1ccc([N+](=O)[O-])cc1Br
Marked response: -0.12

====

- target: Metabotropic glutamate receptor 8 (Rattus norvegicus)
- experimental-details: mGluR8 Gi/Go-coupled signaling modulation – cell-based, rat, thallium flux, HTS, primary screen (AID 488969)
- assay-context: HEK293 rat mGluR8, GIRK thallium flux, FluoZin2; at 10 µM; stronger effect = higher value; submaximal glutamate (EC20) added with thallium
In all, about 110,000 compounds were measured (“z-score”: median about -0.1, highest 2% from about 2 on). The full list was thinned out, with the highest values kept by preference.
assay-endpoint: z-score
Please reply with the number alone, leaving off any unit.

N#C/C(=C\c1ccc(N2CCOCC2)c([N+](=O)[O-])c1)c1nc2ccccc2[nH]1
2.63
N#CC1(Cc2ccccc2)c2ccccc2C=CN1C(=O)c1ccccc1 (configuration not stated)
-0.211
O=C(NC(=S)Nc1nc2ccccc2s1)c1cccs1
11.7
CCOC(=O)C1CCC2(CC1)C(C#N)=C(N)Oc1n[nH]c(C)c12 (configuration not stated)
0.0849
COc1ccc(-c2cc(C#N)nc(N3CCN(c4ccccc4)CC3)n2)cc1
-0.103

Exam item: Using known records, supply z-score for N#CC1(Cc2ccc([N+](=O)[O-])cc2)c2ccccc2C=CN1C(=O)c1ccccc1 (configuration not stated)
Marked response: 2.08

====

Recorded z-score for the following compounds
- target: Metabotropic glutamate receptor 8 (Rattus norvegicus) (UniProt P70579)
- experimental-details: mGluR8 Gi/Go-coupled signaling modulation – cell-based, rat, thallium flux, HTS, primary screen (AID 488969)
- assay-context: HEK293 rat mGluR8, GIRK thallium flux, FluoZin2; at 10 µM; stronger effect = higher value; submaximal glutamate (EC20) added with thallium
Whole data set: some 110,000 compounds, median “z-score” near -0.1, cut for the highest 2% near 2. This is one part of a sample in which the highest values are shown more often than they occur.

Take a look at these entries with their results.
CNC(=S)N/N=C/c1ccccc1Cl
1.82
CCC(=O)c1ccc(N2CCCC2)c(F)c1
0.0378
Cc1cccc(CSc2ncc(CO)n2C)c1
0.12
O=C(NNS(=O)(=O)c1ccc(F)c(Cl)c1)c1cccc(S(=O)(=O)N2CCOCC2)c1
-0.0447
O=C(Nc1ccc2c(c1)OCO2)N1CCN(c2ccccc2Cl)CC1
-0.291

Exam item: Hello, please tell me recorded z-score for this one: COc1ccccc1C(=O)COC(=O)c1ccccc1OCC(=O)Nc1ccc(SC(F)F)cc1
Marked response: 1.1

Exam item: Specify reported z-score for the compound shown: O=C(COc1ccc(Cl)cc1)Nc1nnc(-c2ccc3c(c2)CCCC3)o1
Marked response: -0.441

Exam item: Return the recorded z-score value; entry: Cc1cc(N2CCN(c3ccccc3)CC2)nc(NCc2ccccc2)n1
Marked response: 3

====

Quick reference: z-score of the listed items.
- target: Metabotropic glutamate receptor 8 (Rattus norvegicus)
- experimental-details: mGluR8 Gi/Go-coupled signaling modulation – cell-based, rat, thallium flux, HTS, primary screen (AID 488969)
- assay-context: HEK293 rat mGluR8, GIRK thallium flux, FluoZin2; at 10 µM; stronger effect = higher value; submaximal glutamate (EC20) added with thallium
The full ranking holds about 110,000 compounds; the median of “z-score” is about -0.1, and the highest 2% start at about 2. The sample as a whole holds a higher share of the highest values than the screen did.
Lab note: jot down the number only; don't add units.

Worked set:
Cc1ccc(-c2nn(CC(=O)Nc3ccc4c(c3)nc3n4CCOC3)c(=O)c3ccccc23)cc1
-0.236
O=C(/C=C/N1CCOCC1)c1ccc(-c2ccccc2)cc1
-0.364
O=C(CCc1ccc(S(=O)(=O)N2CCOCC2)cc1)NN=C1CCCCCCC1
-0.592

Exam item: Look up and state reported z-score for COc1ccccc1CNC(=S)NCCc1ccccc1
Marked response: -0.133

Exam item: Note z-score for the molecule shown: O=C(CCc1ccc(S(=O)(=O)N2CCOCC2)cc1)N1CCCC1
Marked response: 2.62

Exam item: Tell me its z-score given C=CCn1c(SCC(=O)Nc2ccc3c(c2)OCO3)nc2ccccc2c1=O as the entry.
Marked response: 0.212

====

- target: Metabotropic glutamate receptor 8 (Rattus norvegicus) (UniProt P70579)
- experimental-details: mGluR8 Gi/Go-coupled signaling modulation – cell-based, rat, thallium flux, HTS, primary screen (AID 488969)
- assay-context: HEK293 rat mGluR8, GIRK (G protein-gated inwardly rectifying potassium channel) thallium flux, FluoZin2; at 10 µM; stronger effect = higher value; submaximal glutamate (EC20) added with thallium
The full ranking holds about 110,000 compounds; the median of “z-score” is about -0.1, and the highest 2% start at about 2. The list comes from a sample in which the highest values are over-represented; it also holds close analogues and randomly drawn compounds. Calls of active or inactive are those of the source.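 Rule for the calls: active = z-score in the third read window above 3 or below -3; inactive = the rest.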
assay-endpoint: z-score

O=C(CN1CCNCC1)Nc1ccc(Oc2ccccc2)cc1
2.35

Exam item: // fetch z-score given entry CC1CCCCN1CC(=O)Nc1ccc(Oc2ccccc2)cc1 (stereo unspecified)
Marked response: 3.58 (active)

Exam item: Provide z-score value for the following compound: O=C(CN1CCOCCOCCOCCOCC1)Nc1ccccc1
Marked response: 0.356

Exam item: Given the compound O=C(CN1CCOCC1)Nc1ccc(Oc2ccc(NC(=O)CN3CCOCC3)cc2)cc1 , write its reported z-score.
Marked response: -0.278

Exam item: Look up and state reported z-score for Cc1ccc2c(CC(=O)OC(C)C(=O)NCc3ccc4c(c3)OCO4)coc2c1 (stereo unspecified)
Marked response: 2.05

Exam item: Quote z-score reported for Fc1ccccc1CSc1nc2ncc(Br)cc2[nH]1 please.
Marked response: 1.26

The measured values listed here are drawn from PubChem BioAssay AID488969.
